Study the reported IC50 values for Transitional endoplasmic reticulum ATPase (Homo sapiens) given below; they originate from different publications.

Query string: Please tell me the measured IC50 for Cc1cc2c(C(N)=O)cccc2n1-c1nc2c(c(NCc3cccc(F)c3)n1)COCC2 ; system: Transitional endoplasmic reticulum ATPase (Homo sapiens).
Result string: < 30 nM

Query string: Please tell me the measured IC50 for COc1cc2c(C(N)=O)cccc2n1-c1nc2c(c(NCc3ccccc3)n1)CCCC2 ; system: Transitional endoplasmic reticulum ATPase (Homo sapiens).
Result string: < 30 nM

Query string: Please tell me the measured IC50 for Cc1cc2c(C(=O)NCCN)cccc2n1-c1nc2c(c(NCc3ccccc3)n1)COCC2 ; system: Transitional endoplasmic reticulum ATPase (Homo sapiens).
Result string: < 1000 nM

Query string: Please tell me the measured IC50 for COc1nc2c(C(N)=O)cccc2n1-c1nc2c(c(NCc3ccccc3)n1)CCCN2 ; system: Transitional endoplasmic reticulum ATPase (Homo sapiens).
Result string: < 30 nM

Query string: Please tell me the measured IC50 for Cc1cc2c(C(N)=O)cccc2n1-c1nc2c(c(NCc3ccccc3)n1)NCCC2 ; system: Transitional endoplasmic reticulum ATPase (Homo sapiens).
Result string: < 30 nM

Query string: Please tell me the measured IC50 for CC(=O)N1CCc2c(nc(-n3c(C)cc4ccccc43)nc2NCc2ccccc2)C1 ; system: Transitional endoplasmic reticulum ATPase (Homo sapiens).
Result string: < 100 nM

Query string: Please tell me the measured IC50 for CC(C)(C)OC(=O)N1CCN(C(=O)Cn2ncc(-c3cc(F)c(OCc4nnc(SC5C=CCCC5)n4-c4cccnc4)cc3F)n2)CC1 (stereo not shown) ; system: Transitional endoplasmic reticulum ATPase (Homo sapiens).
Result string: < 50 nM

Query string: Please tell me the measured IC50 for Cc1cc2c(C(=O)NC(C)C)cccc2n1-c1nc2c(c(NCc3ccccc3)n1)COCC2 ; system: Transitional endoplasmic reticulum ATPase (Homo sapiens).
Result string: < 1000 nM

Query string: Please tell me the measured IC50 for CN1CCCc2nc(-n3ncc4c(C(N)=O)cccc43)nc(NCc3cccc(F)c3)c21 ; system: Transitional endoplasmic reticulum ATPase (Homo sapiens).
Result string: < 100 nM

Query string: Please tell me the measured IC50 for Cc1cc2c(-c3nnn[nH]3)cccc2n1-c1nc2c(c(NCc3ccccc3)n1)COCC2 ; system: Transitional endoplasmic reticulum ATPase (Homo sapiens).
Result string: < 30 nM

Query string: Please tell me the measured IC50 for Cc1cc2c(C(N)=O)cccc2n1-c1nc2c(c(NCc3cccc(F)c3)n1)N(C)CCC2 ; system: Transitional endoplasmic reticulum ATPase (Homo sapiens).
Result string: < 30 nM

Query string: Please tell me the measured IC50 for CCc1cc2c(C(N)=O)cccc2n1-c1nc2c(c(NCc3ccccc3)n1)COCC2 ; system: Transitional endoplasmic reticulum ATPase (Homo sapiens).
Result string: < 300 nM

Query string: Please tell me the measured IC50 for NC(=O)c1cccc2c1cnn2-c1nc2c(c(NCc3ccccc3)n1)CNCC2 ; system: Transitional endoplasmic reticulum ATPase (Homo sapiens).
Result string: < 1000 nM

Query string: Please tell me the measured IC50 for NC(=O)c1cccc2c1cnn2-c1nc2c(c(NCc3ccccc3)n1)COCC2 ; system: Transitional endoplasmic reticulum ATPase (Homo sapiens).
Result string: < 300 nM

Query string: Please tell me the measured IC50 for Cc1cc2ccccc2n1-c1nc2c(c(NCc3ccccc3)n1)CCCC2 ; system: Transitional endoplasmic reticulum ATPase (Homo sapiens).
Result string: < 300 nM

Query string: Please tell me the measured IC50 for [2H]C1([2H])C([2H])([2H])C([2H])([2H])C([2H])(Sc2ncc(COc3cc(F)c(C#CCO)cc3F)n2-c2cccnc2)C1([2H])[2H] ; system: Transitional endoplasmic reticulum ATPase (Homo sapiens).
Result string: 19 nM

Query string: Please tell me the measured IC50 for CCS(=O)(=O)c1ncc(COc2ccc(C#CCO)c(C)c2)n1-c1cccnc1 ; system: Transitional endoplasmic reticulum ATPase (Homo sapiens).
Result string: > 6700 nM

Query string: Please tell me the measured IC50 for Cc1cc2c(C(N)=O)cccc2n1-c1nc(NCc2ccccc2)c2c(n1)C(C)CN(C)C2 (stereo not shown) ; system: Transitional endoplasmic reticulum ATPase (Homo sapiens).
Result string: < 100 nM

Query string: Please tell me the measured IC50 for CN1CCC(NC(=O)OCCn2ncc(-c3cc(F)c(OCc4nnc(SC5C=CCCC5)n4-c4cccnc4)cc3F)n2)CC1 (stereo not shown) ; system: Transitional endoplasmic reticulum ATPase (Homo sapiens).
Result string: < 50 nM

Query string: Please tell me the measured IC50 for Cc1cc2ccccc2n1-c1nc(NCc2ccccc2)c2cccc(C#N)c2n1 ; system: Transitional endoplasmic reticulum ATPase (Homo sapiens).
Result string: < 1000 nM

Query string: Please tell me the measured IC50 for OCC#Cc1c(F)cc(OCc2c(Cl)nc(SC3C=CCCC3)n2-c2cccnc2)cc1F (stereo not shown) ; system: Transitional endoplasmic reticulum ATPase (Homo sapiens).
Result string: 46 nM

Query string: Please tell me the measured IC50 for CC(=O)NCC#Cc1ccc(OCc2cnc(SC3C=CCCC3)n2-c2cccnc2)cc1C (stereo not shown) ; system: Transitional endoplasmic reticulum ATPase (Homo sapiens).
Result string: 60 nM

Query string: Please tell me the measured IC50 for CCc1cc2c(C(N)=O)cccc2n1-c1nc2c(c(NCc3ccccc3)n1)CCCC2 ; system: Transitional endoplasmic reticulum ATPase (Homo sapiens).
Result string: < 100 nM
